Test: In vivo microdialysis and plasma pharmacokinetics (BBB penetration)
Set-up: species or system Sprague-Dawley rats
Details: male, Sprague-Dawley, rat, plasma, iv, 10 mg/kg, 10 mg/kg i.v., plasma, read-out: Half-life Plasma
Record form. Attribute: half-life. Fill in for each entry.
All answers are understood in min, so give the number only.

Determine its reported half-life: NC(=O)CNC(=O)[C@@H]1CCC(=O)NCCCC[C@@H](NC(=O)[C@@H](N)Cc2ccc(O)cc2)C(=O)N[C@@H](Cc2c[nH]c3ccccc23)C(=O)N[C@@H](Cc2ccccc2)C(=O)N1 15.9

Determine its reported half-life: NC(=O)[C@H](CO[C@@H]1O[C@H](CO)[C@@H](O)[C@H](O)[C@H]1O)NC(=O)[C@@H]1CCC(=O)NCCCC[C@@H](NC(=O)[C@@H](N)Cc2ccc(O)cc2)C(=O)N[C@@H](Cc2c[nH]c3ccccc23)C(=O)N[C@@H](Cc2ccccc2)C(=O)N1 25.9
